Molecular target: human CD40 on cells (human, UniProt P25942 21-277)
Sequence (P25942 21-277 limits assumed): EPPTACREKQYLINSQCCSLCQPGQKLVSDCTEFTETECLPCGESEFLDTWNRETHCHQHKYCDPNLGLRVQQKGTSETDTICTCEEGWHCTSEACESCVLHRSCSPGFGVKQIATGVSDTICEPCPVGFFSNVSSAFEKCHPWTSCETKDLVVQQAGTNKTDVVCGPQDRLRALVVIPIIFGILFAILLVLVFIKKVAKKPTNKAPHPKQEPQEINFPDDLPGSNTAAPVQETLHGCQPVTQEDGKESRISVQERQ
Test: cell-based or functional assay
Item-by-item account of human B cell proliferation, with protein G crosslinking, EC50
Numeric only. Scale: pM

Previously resolved entries follow.
| BINDER | EXPERIMENTAL_RESULT |
| --- | --- |
| 39C2 (antibody, IgG4, V domains shown, also called 4887-1) VH: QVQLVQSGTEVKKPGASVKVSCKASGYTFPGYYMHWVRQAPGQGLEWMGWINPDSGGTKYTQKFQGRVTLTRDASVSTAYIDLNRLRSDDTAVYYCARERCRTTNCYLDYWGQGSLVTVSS VL: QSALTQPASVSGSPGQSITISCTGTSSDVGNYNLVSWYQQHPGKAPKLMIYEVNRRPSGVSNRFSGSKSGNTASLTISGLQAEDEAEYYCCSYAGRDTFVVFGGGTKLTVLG | 529 |
| 4G7 (antibody, IgG4, V domains shown, also called 4869-1) VH: QVQLVQSGAEVKKPGASVKVSCKASGYTFAGYYMHWVRQAPGQGLEWMGWINPDSGGTNFAQQFQGRVTMTRDTSISTAYMEVSRLRSDDTAVFYCAREKITMTGIYFDYWGQGTLVTVSS VL: DIQMTQSPSSLSASVGDILTITCRASQNITTYLNWYQQKPGKAPNLLISAASRLRSGVPSRFSGSGSGTDFTLTISSLQPVDFTTFYCQQTFTTPWTFGQGTKVEIKR | 430 |
| 33H9 (antibody, IgG4, V domains shown, also called 4897-1) VH: QVQLVESGGGVVQPGRSLRLSCAASGFTFSSHGMHWVRQPPGKGLEWVAVIWYDGSNEYYGDSVKGRFTISRDNSKNTLYLQMNSLRVEDTAVYYCTRGGGHWNYEGHYYGMDVWGQGTTVTVSS VL: QAVPTQPSSLSASPGASASLTCTLRSGINVGSSRIYWYQQKPGSPPQFLLRYTSDSDKLQGSGVPSRFSGSKDASANAGLLLISGLQSEDEADYYCMIWHSSAVVFGGGTKLTVLG | 344 |
| 35F11 (antibody, IgG4, V domains shown, also called 4868-1) VH: QVQLVESGGGVVQPGRSLRLSCAASGFTLSSYGMHWVRQAPGKGLEWVAVIWYDGSNKYYADSVKGRVTISRDNSKNTLYLQMNSLRAEDTAVYYCTRDGRNYVYFDNWGQGTLVTVSS VL: QSALTQPRSVSGSPGQSVTISCTGTSSDVGGYIFVSWYQQHPGKAPKLMIYDVSKRPSGVPDRFSGSKSVNTASLTISGLQAEDETDYYCCSYAGNYTYVFGTGTKVTVLG | 371 |

Consider the additional binder presented here.
Documented human B cell proliferation, with protein G crosslinking, EC50 of 33H6 (antibody, IgG4, V domains shown, also called 4883-1) VH: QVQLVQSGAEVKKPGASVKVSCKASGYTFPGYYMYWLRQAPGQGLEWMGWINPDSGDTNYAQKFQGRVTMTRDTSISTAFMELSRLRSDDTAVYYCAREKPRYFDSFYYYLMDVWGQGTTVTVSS VL: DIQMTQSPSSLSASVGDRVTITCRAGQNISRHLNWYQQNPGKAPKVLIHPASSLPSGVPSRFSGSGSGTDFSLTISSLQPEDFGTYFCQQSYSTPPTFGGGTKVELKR : 237
